Where these numbers come from: patent US20220017616A1

# tested_system: T1, human TIGIT (human, UniProt Q495A1 22-244)
# T1 construct: Cell-surface form; also called huTIGIT
# T1 sequence: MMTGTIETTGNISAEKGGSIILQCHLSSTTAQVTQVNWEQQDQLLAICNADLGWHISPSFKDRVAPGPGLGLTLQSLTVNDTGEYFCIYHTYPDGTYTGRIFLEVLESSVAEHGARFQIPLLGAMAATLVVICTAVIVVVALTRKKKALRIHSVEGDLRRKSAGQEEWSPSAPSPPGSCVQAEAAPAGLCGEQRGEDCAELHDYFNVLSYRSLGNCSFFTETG
# assay_details: flow cytometry, 1 µg/mL on activated primary human T cells, fold over isotype control
property: FACS Geomean Fold (fold)

binder: 39D2 (antibody, V domains shown, Fully human XenoMouse antibody, tested as hybridoma supernatant or purified mAb) VH: QVQLVQSGAEVKKPGASVKVSCKASGYTFTGYYIHWVRQAPGQGLEWMGWISPTSGATGYAQNFQGRVTMTRDTSITTAYMELSRLRSDDTAVYYCARDSNSVLYYYGMDVWGQGTTVTVSS VL: DIEMTQAPSSLSASVGDRVTITCRASQTIRRYLNWYQQKPGKAPKLLIYAASSLQNGVPSRFSGSVSGTDFTLTISSLQPEDFATYYCQQSYSTPLTFGGGTKVGIRR
reported_value: 13.7
--
binder: 55G7 (antibody, V domains shown, Fully human XenoMouse antibody, tested as hybridoma supernatant or purified mAb) VH: QVQLVESGGGVVQPGRSLRLSCAASGFTFSSYGMHWVRQAPGKGLEWVALIWFDESNIYYADSVKGRFTISRDNSKNTLYLQMNSLRAEDTAVYFCARGYDLLTGYYNFDFWGLGTLVTVSA VL: QAGLTQPPSVSKGLRQTATLTCTGNTNNVGNRGAAWLQQHQGHPPKLLSYRNNNRPSGISERLSASRSGNTASLTITGLQPEDEADYYCSAWDSSLSAWVFGGGTKLTVLG
reported_value: 4.5
